biological target: NEK7 (human) (UniProt Q8TDX7); assay: radiometric filter-binding kinase assay; settings: compound 1.0 µM
Sequence (Q8TDX7 whole entry, looked up): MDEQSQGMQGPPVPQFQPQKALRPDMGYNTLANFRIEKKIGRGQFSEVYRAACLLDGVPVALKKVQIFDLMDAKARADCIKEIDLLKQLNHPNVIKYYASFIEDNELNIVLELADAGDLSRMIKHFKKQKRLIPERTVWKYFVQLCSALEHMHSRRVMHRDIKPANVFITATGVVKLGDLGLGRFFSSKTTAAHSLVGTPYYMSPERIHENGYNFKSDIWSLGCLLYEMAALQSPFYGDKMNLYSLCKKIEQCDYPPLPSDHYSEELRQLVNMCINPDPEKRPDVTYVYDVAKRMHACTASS
reported.metric: residual activity (%)

molecule	measurement.target	reported.metric	scale.unit	data.value
CCCC(CCC)C(=O)O	NEK7 (human) (UniProt Q8TDX7)	residual activity	%	99
Cc1cccc(Nc2nn(C)c3ncnc(N)c23)c1	NEK7 (human) (UniProt Q8TDX7)	residual activity	%	88
COc1ccc2c(c1)c1c3c(c4c5ccccc5n(C)c4c1n2CC(O)CN(C)C)C(=O)NC3=O (stereo not given)	NEK7 (human) (UniProt Q8TDX7)	residual activity	%	84
Oc1ccc(/C=C/c2cc(O)cc(O)c2)cc1	NEK7 (human) (UniProt Q8TDX7)	residual activity	%	94
Cn1nc(Nc2ccc(F)cc2)c2c(N)ncnc21	NEK7 (human) (UniProt Q8TDX7)	residual activity	%	94
